Biological target: T1, GFP-9S library array, motif 4 ND N98I;D124N (synthetic construct, N98I;D124N)
T1 chain: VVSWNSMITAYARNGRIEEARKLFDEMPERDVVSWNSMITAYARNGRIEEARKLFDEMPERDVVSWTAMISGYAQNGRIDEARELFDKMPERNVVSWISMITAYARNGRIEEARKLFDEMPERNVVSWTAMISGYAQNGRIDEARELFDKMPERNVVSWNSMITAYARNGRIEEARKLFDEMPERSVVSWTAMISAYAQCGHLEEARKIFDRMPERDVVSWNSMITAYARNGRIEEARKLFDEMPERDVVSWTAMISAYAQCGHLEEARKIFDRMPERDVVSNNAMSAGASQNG
Test: high-throughput RNA pulldown from lysate on Ni-NTA beads; HRP: 50 mM Tris pH 8, 150 mM NaCl, 1 mM beta-mercaptoethanol, 50 ug/ml BSA, 3 ug/ml yeast RNA, 0.5% heparin; ITC and FP: Tris pH 8, 200 mM KCl, 5% glycerol; MST: 50 mM Tris pH 8, 200 mM NaCl, 1 mM DTT, BSA, heparin, 0.05% Tween 20
Conditions: tags: N-terminal His-eGFP; label: 5' IRDye 800CW
measured parameter: Kd (nM)
Quick reminder: number only, in nM, skip the unit.

{"columns": ["binder", "Kd, nM"],
 "data": [
  ["AUUAUACGUGA (ssRNA) [IR-rpoA-U]", 18.2]
]}

I'd like to know its Kd. The binder in question is AUUAAACGUGA (ssRNA) [IR-rpoA-A]
150
